Numbers sourced from patent US20110301142A1.

- tgt: human LPA3 (Homo sapiens)
- Construct: The full-length cDNA fragment for human LPA3 was obtained by PCR from the vector; cDNA from the Missouri S&T cDNA Resource Center
- Sequence (Q9UBY5 whole entry, the tested form may be a part): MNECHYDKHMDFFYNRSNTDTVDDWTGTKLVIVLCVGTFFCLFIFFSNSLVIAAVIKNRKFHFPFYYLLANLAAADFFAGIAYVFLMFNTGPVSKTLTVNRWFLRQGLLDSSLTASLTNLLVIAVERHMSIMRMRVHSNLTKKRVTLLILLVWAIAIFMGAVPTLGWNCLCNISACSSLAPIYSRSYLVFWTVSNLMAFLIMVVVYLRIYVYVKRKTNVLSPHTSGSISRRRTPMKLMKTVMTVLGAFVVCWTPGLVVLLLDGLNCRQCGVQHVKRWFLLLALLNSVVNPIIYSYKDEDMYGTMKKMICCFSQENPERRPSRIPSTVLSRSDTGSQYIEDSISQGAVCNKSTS
- test_name: LPA3 calcium flux assay
- condition_info: Human LPA3 expressing CHO cells, stimulated with 10 nM LPA; read-out: HLPA3 Ca Flux IC50
pIC50: −log10 of the molar value.
test_readout: pIC50

Inquiry: Determine from records and report pIC50 for Cc1noc(-c2ccc(-c3nc(C(=O)O)cs3)cc2)c1NC(=O)OC(C)c1ccccc1Cl (stereo not drawn)
Reply text: 4.30 to 6.00

Inquiry: Specify reported pIC50 for the molecule shown: Cc1noc(-c2ccc(-c3ccc(CC(=O)O)cc3)nc2)c1NC(=O)OC(C)c1ccccc1F (stereo not drawn)
Reply text: < 4.30

Inquiry: Fill in reported pIC50 for this entry: COC(=O)Cc1ccc(OCc2ccc(-c3onc(C)c3NC(=O)O[C@H](C)c3ccccc3Cl)cc2)cc1
Reply text: 4.30 to 6.00

Inquiry: Tell us which pIC50 value is on record for Cc1noc(-c2ccc(-c3ccc(CC(=O)O)cc3)cc2)c1NC(=O)O[C@@H](C)c1ccccc1Cl
Reply text: 4.30 to 6.00

Inquiry: Provide only the value of recorded pIC50 for Cc1noc(-c2ccc(-c3ccc(C(C)(C)C(=O)O)cc3)cc2)c1NC(=O)O[C@H](C)c1ccccc1F
Reply text: 4.30 to 6.00

Inquiry: Name the recorded pIC50 of the molecule listed here: Cc1noc(-c2ccc(-c3ccc(C(=O)O)cc3)cc2)c1NC(=O)O[C@H](C)c1ccccc1
Reply text: 4.30 to 6.00

Inquiry: Give the reported pIC50 for this molecule. COC(=O)Cc1ccc(-c2ccc(-c3onc(C)c3NC(=O)OC(C)c3ccccc3Cl)cc2)cc1 (stereo not drawn)
Reply text: 4.30 to 6.00

Inquiry: Identify the reported pIC50 for the following entry. Cc1noc(-c2ccc(-c3ccc(CC(=O)O)cc3)cc2)c1NC(=O)OC(C)c1ccc(Cl)cc1F (stereo not drawn)
Reply text: 4.30 to 6.00

Inquiry: State its pIC50: Cc1noc(-c2ccc(-c3ccc(CC(=O)O)cc3)cc2)c1NC(=O)OC(C)c1ccccc1C(F)(F)F (stereo not drawn)
Reply text: 4.30 to 6.00

Inquiry: Identify measured pIC50 associated with Cc1noc(-c2ccc(-c3ccc(C(C)C(=O)O)cc3)cc2)c1NC(=O)O[C@H](C)c1ccccc1Cl (stereo partly drawn) [Compound 1-92]
Reply text: 6.00 to 6.52

Inquiry: Read off the recorded pIC50 for Cc1noc(-c2ccc(Cc3ccc(CC(=O)O)cc3)cc2)c1NC(=O)OC(C)c1ccccc1Cl (stereo not drawn)
Reply text: 4.30 to 6.00

Inquiry: Specify reported pIC50 for the molecule shown: Cc1noc(-c2ccc(-c3ccc(CC(=O)O)cc3)cc2)c1NC(=O)OC(C)c1cc(F)ccc1F (stereo not drawn)
Reply text: 4.30 to 6.00

Inquiry: Quote pIC50 reported for Cc1noc(-c2ccc(-c3ccc(C(C)C(=O)O)cc3)cc2)c1NC(=O)O[C@H](C)c1ccccc1Cl (single isomer, unassigned) [Compound 1-127] please.
Reply text: 6.00 to 6.52

Inquiry: Consider the molecule Cc1noc(-c2ccc(-c3ccc(CC(=O)O)cc3)cc2)c1NC(=O)O[C@@H](C)c1ccccc1 and give its recorded pIC50.
Reply text: 4.30 to 6.00

Inquiry: Give pIC50 for Cc1noc(-c2ccc(-c3ccc(CC(=O)O)cc3)cc2Cl)c1NC(=O)O[C@H](C)c1ccccc1Cl
Reply text: 4.30 to 6.00
